System: HCC1806;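 note: growth inhibition of the cancer cell line, determined with a cell viability assay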
experiment.notes: cells
Format: functional, cell-based, Homo sapiens
condition: Homo sapiens, HCC1806
Description: SANGER: Inhibition of human HCC1806 cell growth in a cell viability assay.
Counter-ions that a name gives are not always drawn.
measure: IC50

Could you share which IC50 value was measured for COC1=CC(c2cc3ccccc3[nH]2)=N/C1=C\c1[nH]c(C)cc1C [OBATOCLAX MESYLATE] ?
124 nM

What IC50 value was documented for this compound, `CC(C)c1ccccc1Cc1cc(C(=O)Nc2ccc(S(=O)(=O)c3ccccc3C(C)(C)C)cc2)c(O)c(O)c1O` ?
1430 nM

# IC50 lookup, item `CO[C@H]1C[C@@H]2CC[C@@H](C)[C@@](O)(O2)C(=O)C(=O)N2CCCC[C@H]2C(=O)O[C@H]([C@H](C)C[C@@H]2CC[C@@H](OC(=O)C(C)(CO)CO)[C@H](OC)C2)CC(=O)[C@H](C)/C=C(\C)[C@@H](O)[C@@H](OC)C(=O)[C@H](C)C[C@H](C)/C=C/C=C/C=C/1C`
> 200 nM

Consider the compound `COc1cc2c(Nc3ccc(NC(=O)c4ccccc4)cc3)ncnc2cc1OCCCN1CCOCC1` and give its measured IC50.
> 4000 nM

Consider the compound shown here: `CS(=O)(=O)c1ccc(C(=O)Nc2ccc(Cl)c(-c3ccccn3)c2)c(Cl)c1` What is its recorded IC50?
> 10000 nM

What measured IC50 goes with `N#Cc1c(O)c2c(-c3ccc(-c4ccccc4O)cc3)csc2[nH]c1=O` ?
> 1020 nM

// query IC50 value for entry `CCC/C=C/C=C/C(=O)O[C@H]1/C(=C/C(=O)OC)C[C@H]2C[C@H]([C@@H](C)O)OC(=O)C[C@H](O)C[C@@H]3C[C@H](OC(C)=O)C(C)(C)[C@](O)(C[C@@H]4C/C(=C/C(=O)OC)C[C@H](/C=C/C(C)(C)[C@]1(O)O2)O4)O3`
> 8 nM

---

Test system: IST-MES1
experiment.notes: cells
Assay type: functional, cell-based, Homo sapiens
condition: ist-mes1
Description: SANGER: Inhibition of human IST-MES1 cell growth in a cell viability assay.
measure: IC50 (µM)
API: value field is a number in µM; no unit string.

Field request: IC50 | item: `BLEOMYCIN`
206

---

Tested on: SNU-16;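 note: growth inhibition of human SNU-16 cells, determined with a cell viability readout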
experiment.notes: cells
Format: functional, cell-based, Homo sapiens
condition: Homo sapiens, SNU-16
Description: SANGER: Inhibition of human NCI-SNU-16 cell growth in a cell viability assay.
pIC50: −log10 of the molar value.
Exercise: for every item that follows, state its recorded pIC50.

For `COc1cc(-c2nn([C@H]3CC[C@H](N4CCN(C(C)=O)CC4)CC3)c3ncnc(N)c23)ccc1NC(=O)c1cc2ccccc2n1C` , what is its reported pIC50?
< 5.29

Please report the recorded pIC50 for `N[C@@H](CSC(c1ccccc1)(c1ccccc1)c1ccccc1)C(=O)O` .
< 5.29

Quick one: pIC50 of COc1cc2ncn(-c3cc(OCc4ccccc4S(C)(=O)=O)c(C#N)s3)c2cc1OC [GSK-319347A] ?
< 5.30

Fill in: pIC50 of `C#Cc1cccc(Nc2ncnc3cc(OCCOC)c(OCCOC)cc23)c1` is ___
< 5.70

pIC50 for `N#Cc1c(O)c2c(-c3ccc(-c4ccccc4O)cc3)csc2[nH]c1=O` ?
< 5.99

Consider the compound `CCN(CC)CCNC(=O)c1c(C)[nH]c(/C=C2\C(=O)Nc3ccc(F)cc32)c1C` and give its measured pIC50.
5.83

---

System: NB13;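 note: cell viability readout measuring growth inhibition of human NB13 cells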
experiment.notes: cells
Assay type: functional, cell-based, Homo sapiens
condition: Homo sapiens, NB13
Description: SANGER: Inhibition of human NB13 cell growth in a cell viability assay.
measure: IC50

Record request: IC50 value, item `CC[C@H](CO)Nc1nc(NCc2ccccc2)c2ncn(C(C)C)c2n1`
> 16 µM

// lookup IC50 for `CCN(CC)CCNC(=O)c1c(C)[nH]c(/C=C2\C(=O)Nc3ccc(F)cc32)c1C`
> 8 µM

Which IC50 value is on record for `Cc1cc([N+](=O)[O-])ccc1NS(=O)(=O)c1cc(Cl)ccc1Cl` ?
7.32 µM

Return reported IC50; argument: `COc1cc(N2CCN(C)CC2)ccc1Nc1ncc2c(n1)N(C)c1ccccc1C(=O)N2C`
> 8 µM

Using the record for COc1cc2ncn(-c3cc(OCc4ccccc4S(C)(=O)=O)c(C#N)s3)c2cc1OC [GSK-319347A] , report its IC50.
> 5 µM

Suppose we examine the compound `CCN(CC)CCCCNc1ncc2cc(-c3cc(OC)cc(OC)c3)c(NC(=O)NC(C)(C)C)nc2n1` ; what IC50 value has been reported?
> 2 µM

---

Tested on: DMS-114
experiment.notes: cells
Format: functional, cell-based, Homo sapiens
condition: Homo sapiens, DMS-114
pIC50: −log10 of the molar value.
Could you please report measured pIC50 for the items listed next?

What pIC50 appears in the records for this compound with DMS-114? `COc1cc2c(Nc3ccc(NC(=O)c4ccccc4)cc3)ncnc2cc1OCCCN1CCOCC1`
< 5.40

What value of pIC50 on DMS-114 does `CN(C)C(=N)NC(=N)N` have?
< 1.70

Hi! What's the reported pIC50 for `Cc1ccc(-c2c(C(=O)CCl)n(CCCO)c3ncnc(N)c23)cc1` on DMS-114?
< 5.40

Item: `O=C(O)c1ccc(-c2c[nH]c3ncc(-c4ccccc4)cc23)cc1C1CCCC1` Test system: DMS-114 Read-out: pIC50 Value: ?
< 4.80

Entry `CC(C)c1ccccc1Cc1cc(C(=O)Nc2ccc(S(=O)(=O)c3ccccc3C(C)(C)C)cc2)c(O)c(O)c1O` , system DMS-114: what pIC50 was measured?
7.04

Query pIC50 on DMS-114 for `CC(=O)O[C@H]1C(=O)[C@@]2(C)[C@H]([C@H](OC(=O)c3ccccc3)[C@]3(O)C[C@H](OC(=O)[C@H](O)[C@@H](NC(=O)c4ccccc4)c4ccccc4)C(C)=C1C3(C)C)[C@]1(OC(C)=O)CO[C@@H]1C[C@@H]2O`
7.60

What is its pIC50 for DMS-114? Entry: CC(C)CCN1c2nc(Nc3cc(F)c(O)c(F)c3)ncc2N(C)C(=O)C1C (stereo not drawn)
5.32

Requested read-out pIC50, target or system DMS-114, entry Nc1cccc2c1CN(C1CCC(=O)NC1=O)C2=O (stereo not drawn) [LENALIDOMIDE]
< 5.30

---

System: SK-MEL-5
experiment.notes: SANGER: Inhibition of human SK-MEL-5 cell growth in a cell viability assay.
Type: functional, cell-based
measure: pIC50
// pIC50 here means minus log10 of the molar concentration (mol/L)

Sample `CC(C)c1ccccc1Cc1cc(C(=O)Nc2ccc(S(=O)(=O)c3ccccc3C(C)(C)C)cc2)c(O)c(O)c1O` — what was its pIC50?
7.16

---

Test system: ACHN;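 note: cell viability read-out used to gauge how strongly growth of human ACHN cells is suppressed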
experiment.notes: cells
Format: functional, cell-based, Homo sapiens
condition: Homo sapiens, ACHN
Description: SANGER: Inhibition of human ACHN cell growth in a cell viability assay.
pIC50: −log10 of the molar value.
Field: pIC50. Provide a value for each of the molecules that follow.

Find the recorded pIC50 belonging to `CN(C)C(=N)NC(=N)N` and report it.
< 1.70

Quick check: pIC50 of Nc1cccc2c1CN(C1CCC(=O)NC1=O)C2=O (stereo not drawn) [LENALIDOMIDE] ?
< 5.30

I'd like to know its pIC50. The molecule in question is `CO[C@H]1C[C@@H]2CC[C@@H](C)[C@@](O)(O2)C(=O)C(=O)N2CCCC[C@H]2C(=O)O[C@H]([C@H](C)C[C@@H]2CC[C@@H](OC(=O)C(C)(CO)CO)[C@H](OC)C2)CC(=O)[C@H](C)/C=C(\C)[C@@H](O)[C@@H](OC)C(=O)[C@H](C)C[C@H](C)/C=C/C=C/C=C/1C`
< 6.70

---

Please go through the items and note down their pIC50.
System: CaR-1
experiment.notes: cells
Format: functional, cell-based, Homo sapiens
condition: Homo sapiens, CaR-1
Description: SANGER: Inhibition of human CaR-1 cell growth in a cell viability assay.
pIC50: −log10 of the molar value.

Given the entry CN(C)C(=N)NC(=N)N [METFORMIN] , what pIC50 was observed with CaR-1?
< 1.70

Given the entry `N#Cc1c(O)c2c(-c3ccc(-c4ccccc4O)cc3)csc2[nH]c1=O` , what pIC50 was observed with CaR-1?
< 5.99

Identify the measured pIC50 of CCN(CC)CCCCNc1ncc2cc(-c3cc(OC)cc(OC)c3)c(NC(=O)NC(C)(C)C)nc2n1 [PD-173074] for CaR-1.
< 5.70

So what pIC50 did Cn1cnc2c(F)c(Nc3ccc(Br)cc3Cl)c(C(=O)NOCCO)cc21 [SELUMETINIB] get with CaR-1?
< 5.40

Please tell me: pIC50 of `CC(C)c1ccccc1Cc1cc(C(=O)Nc2ccc(S(=O)(=O)c3ccccc3C(C)(C)C)cc2)c(O)c(O)c1O` , system CaR-1?;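 note: growth inhibition of human CaR-1 cancer cells, read out with a cell viability assay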
5.23

---

Consider the following molecules; for each one, report its IC50.
Tested on: SW900;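 note: IC50 is the concentration that inhibits SW900 cell growth, measured by a cell viability assay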
experiment.notes: cells
Format: functional, cell-based, Homo sapiens
condition: Homo sapiens, SW900
Description: SANGER: Inhibition of human SW900 cell growth in a cell viability assay.

Which IC50 value belongs to `CCN(CC)CCCCNc1ncc2cc(-c3cc(OC)cc(OC)c3)c(NC(=O)NC(C)(C)C)nc2n1` ?
> 2000 nM

Report IC50 for `COc1cc2ncnc(Nc3ccc(F)c(Cl)c3)c2cc1OCCCN1CCOCC1` please.
> 500 nM

What value of IC50 has been reported for the following molecule? `CC(C)c1ccccc1Cc1cc(C(=O)Nc2ccc(S(=O)(=O)c3ccccc3C(C)(C)C)cc2)c(O)c(O)c1O`
2770 nM

Quick one: IC50 of `CO[C@H]1C[C@@H]2CC[C@@H](C)[C@@](O)(O2)C(=O)C(=O)N2CCCC[C@H]2C(=O)O[C@H]([C@H](C)C[C@@H]2CC[C@@H](OC(=O)C(C)(CO)CO)[C@H](OC)C2)CC(=O)[C@H](C)/C=C(\C)[C@@H](O)[C@@H](OC)C(=O)[C@H](C)C[C@H](C)/C=C/C=C/C=C/1C` ?
> 200 nM
